SUBJECT OF TEST: high affinity nicotinic receptors
ASSAY DETAILS: Inhibition of L-[3H]nicotine binding to mouse brain membrane preparations
CONDITIONS: mouse brain membranes, 2 hr incubation at 4° C., 10 nM L-[3H]nicotine, Ki calculated from IC50 by method of Cheng et al.
MEASURE NAME: Ki (nM)

[[record]]
compound = "CN1CCCC1c1ccncc1 (stereo not shown)"
subject_of_test = "high affinity nicotinic receptors"
measure_name = "Ki"
meas_value = 1100

